system: CWR22R; experiment: Antiproliferative activity against human 22Rv1 cells after 96 hrs by propidium iodide staining based fluorescence 2D monolayer assay; type: functional, cell-based; conditions: 22Rv1, 96 h
Reported pIC50 values for the following molecules.
// field semantics: pIC50 = negative decimal log of concentration (mol/L)

Molecule	System	pIC50
CC(O)(CSc1ccccc1C(F)(F)F)C(=O)Nc1ccc(C(F)(F)F)cc1 (centres undefined)	CWR22R	5.28
CC(O)(COc1ccc(C#N)c(F)c1)C(=O)Nc1ccc([N+](=O)[O-])c(C(F)(F)F)c1 (centres undefined)	CWR22R	4.93
C[C@](O)(CSc1ccc(C(F)(F)F)cc1)C(=O)Nc1ccc(C#N)c(C(F)(F)F)c1	CWR22R	5.01
CC(O)(CSc1ccccc1C(F)(F)F)C(=O)Nc1ccc(C#N)cc1C(F)(F)F (centres undefined)	CWR22R	4.93
CC1(C)C(=O)N(c2ccc(C(F)(F)F)cc2)C(=O)N1c1ccc([N+](=O)[O-])cc1C(F)(F)F	CWR22R	4.79

Query: Fill in the blank: the reported pIC50 of CC(O)(COc1ccc(OC(F)(F)F)cc1)C(=O)Nc1ccc(C#N)cc1C(F)(F)F (centres undefined) is ____.
Reply: 4.55

Query: Fill in the blank: the reported pIC50 of CC(O)(COc1ccc(OC(F)(F)F)cc1)C(=O)Nc1ccc([N+](=O)[O-])c(C(F)(F)F)c1 (centres undefined) is ____.
Reply: 5.12

Query: Fill in the blank: the reported pIC50 of "CC1(C)C(=O)N(c2ccc(C(F)(F)F)cc2)C(=O)N1c1ccc(C#N)c(C(F)(F)F)c1" is ____.
Reply: 4.20

Query: Fill in the blank: the reported pIC50 of CC(O)(CS(=O)(=O)c1ccccc1C(F)(F)F)C(=O)Nc1ccc(C#N)cc1C(F)(F)F (centres undefined) is ____.
Reply: 4.01

----------
Reported IC50 values for the following compounds.
system: CWR22R; test: Antiproliferative activity against human 22Rv1 cells after 96 hrs by propidium iodide staining based fluorescence 2D monolayer assay; assay type: functional, cell-based; conditions: 22Rv1, 96 h
Kindly provide the numeric value in µM only, without the unit symbol.

Below are worked cases with known answers.
Compound	System	Scale Unit	IC50
CC(O)(CSc1ccc(OC(F)(F)F)cc1)C(=O)Nc1ccc([N+](=O)[O-])cc1C(F)(F)F (centres undefined)	CWR22R	µM	61.9
CC(O)(CSc1cccc(C(F)(F)F)c1)C(=O)Nc1ccc(C#N)c(C(F)(F)F)c1 (centres undefined)	CWR22R	µM	5.56
CC(O)(COc1ccc(C#N)cc1)C(=O)Nc1ccc(C#N)cc1C(F)(F)F (centres undefined)	CWR22R	µM	42.9
CC(O)(COc1cccc(OC(F)(F)F)c1)C(=O)Nc1ccc(C(F)(F)F)cc1 (centres undefined)	CWR22R	µM	15.4
CC1(C)C(=O)N(c2cccc(C(F)(F)F)c2)C(=O)N1c1ccc(C(F)(F)F)cc1	CWR22R	µM	92.5

Query: Fill in the blank: the reported IC50 of CC(O)(COc1ccc(F)cc1F)C(=O)Nc1ccc(C#N)c(C(F)(F)F)c1 (centres undefined) is ____.
Reply: 34

Query: Fill in the blank: the reported IC50 of CC(O)(CSc1ccc(C(F)(F)F)cn1)C(=O)Nc1ccc(C#N)c(C(F)(F)F)c1 (centres undefined) is ____.
Reply: 53.9

Query: Fill in the blank: the reported IC50 of CC(O)(COc1ccccc1C(F)(F)F)C(=O)Nc1ccc(C#N)cc1C(F)(F)F (centres undefined) is ____.
Reply: 19.6

Query: Fill in the blank: the reported IC50 of "C[C@](O)(CSc1ccc(F)cc1F)C(=O)Nc1ccc(C#N)c(C(F)(F)F)c1" is ____.
Reply: 17.2

----------
test: in vitro; conditions: human, liver microsomes
Reported microsomal CLint at 3 µM values for the following molecules.
The answer should read as a number with its unit following.

Below are worked cases with known answers.
Molecule	microsomal CLint at 3 µM
CC(O)(CSc1cccc(C(F)(F)F)c1)C(=O)Nc1ccc([N+](=O)[O-])c(C(F)(F)F)c1 (stereo not given)	202 µL/min/mg
C[C@](O)(CSc1ccc(C(F)(F)F)cc1)C(=O)Nc1ccc(C#N)c(C(F)(F)F)c1	248 µL/min/mg
CC(O)(COc1ccc(C#N)cc1C(F)(F)F)C(=O)Nc1ccc([N+](=O)[O-])c(C(F)(F)F)c1 (stereo not given)	2.59 µL/min/mg
C[C@](O)(CS(=O)(=O)c1ccc(F)cc1)C(=O)Nc1ccc(C#N)c(C(F)(F)F)c1 [(R)-BICALUTAMIDE]	6.48 µL/min/mg

// switching to the query molecule
Query: Fill in the blank: the reported microsomal CLint at 3 µM of CC(O)(CSc1ccccc1C(F)(F)F)C(=O)Nc1ccc(C#N)c(C(F)(F)F)c1 (stereo not given) is ____.
Reply: 379 µL/min/mg

----------
assay: Half life in human liver microsomes at 3 uM preincubated with compound followed by NADPH addition by LC-MS/MS analysis; details: liver microsomes
Measurement Name: half-life at 3 µM
The answer should read as a number with its unit following.

Below are worked cases with known answers.
Compound	half-life at 3 µM
CC(O)(CSc1cccc(C(F)(F)F)c1)C(=O)Nc1ccc([N+](=O)[O-])c(C(F)(F)F)c1 (centres undefined)	6.87 min
C[C@](O)(CSc1ccc(C(F)(F)F)cc1)C(=O)Nc1ccc(C#N)c(C(F)(F)F)c1	5.6 min
CC(O)(CSc1ccccc1C(F)(F)F)C(=O)Nc1ccc(C#N)c(C(F)(F)F)c1 (centres undefined)	3.66 min

// switching to the query compound
Query: Fill in the blank: the reported half-life at 3 µM of CC(O)(COc1ccc(C#N)cc1C(F)(F)F)C(=O)Nc1ccc([N+](=O)[O-])c(C(F)(F)F)c1 (centres undefined) is ____.
Reply: 534 min

----------
test system: DU-145; assay: Antiproliferative activity against human DU145 cells assessed as relative inhibition after 96 hrs by propidium iodide staining based fluorescence 2D monolayer assay; format: functional, cell-based; settings: DU-145, 96 h
Measurement Name: IC70

Below are worked cases with known answers.
Compound	IC70
CC(O)(CS(=O)(=O)c1ccc(OC(F)(F)F)cc1)C(=O)Nc1ccc([N+](=O)[O-])cc1C(F)(F)F (stereo unspecified)	> 100 µM
O=C(Nc1ccc([N+](=O)[O-])c(C(F)(F)F)c1)C(O)(CSc1ccccc1C(F)(F)F)C(F)(F)F (stereo unspecified)	2.7 µM
CC1(C)C(=O)N(c2ccc(C(F)(F)F)cc2)C(=O)N1c1ccc([N+](=O)[O-])c(C(F)(F)F)c1	> 100 µM
CC(O)(CSc1ccccc1OC(F)(F)F)C(=O)Nc1ccc([N+](=O)[O-])cc1C(F)(F)F (stereo unspecified)	7.59 µM
CC(O)(CS(=O)(=O)c1ccc(F)cc1)C(=O)Nc1ccc(C#N)c(C(F)(F)F)c1 (stereo unspecified) [BICALUTAMIDE]	58.3 µM

// switching to the query compound
Query: Fill in the blank: the reported IC70 of C[C@](O)(CS(=O)(=O)c1ccc(F)cc1)C(=O)Nc1ccc(C#N)c(C(F)(F)F)c1 [(R)-BICALUTAMIDE] is ____.
Reply: 52.6 µM

----------
target: Androgen receptor (Rattus norvegicus); assay: Antagonist activity at rat androgen receptor fused with DNA-binding domain of GAL4 expressed in AR-UAS-bla GripTite 293 cells assessed as inhibition of R1881-induced receptor activation preincubated for 30 mins followed by R1881 addition measured after 16 to 24 hrs by betalactamase reporter gene assay
Sequence (P15207 whole entry S389L, the tested form may be a part): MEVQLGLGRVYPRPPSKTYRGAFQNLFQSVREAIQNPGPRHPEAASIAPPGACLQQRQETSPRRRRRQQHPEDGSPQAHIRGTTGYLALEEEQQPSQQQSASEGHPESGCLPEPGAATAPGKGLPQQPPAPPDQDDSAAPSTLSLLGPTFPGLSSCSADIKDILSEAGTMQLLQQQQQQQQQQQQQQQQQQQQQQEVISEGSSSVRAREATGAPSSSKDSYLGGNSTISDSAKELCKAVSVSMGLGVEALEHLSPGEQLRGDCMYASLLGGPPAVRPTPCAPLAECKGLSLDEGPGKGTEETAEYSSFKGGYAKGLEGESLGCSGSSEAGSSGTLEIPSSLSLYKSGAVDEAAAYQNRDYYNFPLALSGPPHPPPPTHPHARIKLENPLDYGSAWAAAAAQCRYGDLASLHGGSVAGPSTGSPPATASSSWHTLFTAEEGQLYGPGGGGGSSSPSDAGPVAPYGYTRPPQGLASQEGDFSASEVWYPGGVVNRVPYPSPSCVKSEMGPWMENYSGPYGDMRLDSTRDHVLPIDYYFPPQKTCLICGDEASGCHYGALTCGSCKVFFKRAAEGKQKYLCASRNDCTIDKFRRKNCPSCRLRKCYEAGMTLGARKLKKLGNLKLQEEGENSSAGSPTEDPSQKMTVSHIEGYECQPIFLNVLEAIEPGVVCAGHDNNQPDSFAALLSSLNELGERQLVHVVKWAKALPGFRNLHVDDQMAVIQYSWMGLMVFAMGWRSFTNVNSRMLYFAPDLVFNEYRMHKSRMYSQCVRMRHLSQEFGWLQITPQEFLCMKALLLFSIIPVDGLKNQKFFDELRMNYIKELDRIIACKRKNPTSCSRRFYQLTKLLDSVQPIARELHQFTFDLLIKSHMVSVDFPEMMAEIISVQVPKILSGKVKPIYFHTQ
Reported pIC50 values for the following compounds.
// field semantics: pIC50 = negative decimal log of concentration (mol/L)

Compound	pIC50
CC(O)(CSc1cccc(C(F)(F)F)c1)C(=O)Nc1ccc([N+](=O)[O-])c(C(F)(F)F)c1 (centres undefined)	6.20
CC(O)(CSc1ccccc1C(F)(F)F)C(=O)Nc1ccc(C#N)c(C(F)(F)F)c1 (centres undefined)	6.37
CC(O)(COc1ccc(OC(F)(F)F)cc1)C(=O)Nc1ccc([N+](=O)[O-])c(C(F)(F)F)c1 (centres undefined)	6.20
CC(O)(CSc1ccccc1C(F)(F)F)C(=O)Nc1ccc([N+](=O)[O-])cc1C(F)(F)F (centres undefined)	6.48
C[C@](O)(CSc1ccc(C(F)(F)F)cc1)C(=O)Nc1ccc(C#N)c(C(F)(F)F)c1	5.66

Query: Fill in the blank: the reported pIC50 of CC(O)(COc1ccc(C#N)c(F)c1)C(=O)Nc1ccc([N+](=O)[O-])c(C(F)(F)F)c1 (centres undefined) is ____.
Reply: 7.31

Query: Fill in the blank: the reported pIC50 of "CC1(C)C(=O)N(c2cccc(C(F)(F)F)c2)C(=O)N1c1ccc([N+](=O)[O-])cc1C(F)(F)F" is ____.
Reply: 6.95

Query: Fill in the blank: the reported pIC50 of "CC1(C)C(=O)N(c2cccc(C(F)(F)F)c2)C(=O)N1c1cccc(C(F)(F)F)c1" is ____.
Reply: 6.91

Reference for the values: ChEMBL document CHEMBL4477199
